Cited source for all entries: patent US20240360227A1

- target_or_test_system: Recombinant human his-tagged IGF R extracellular domain protein (human) (UniProt P08069)
- protocol_text: SPR, Ab captured via anti-huIgG Fc, dissociation at pH 6
As shown below, each of these binders has a reported kon value.
Your answer is read as M⁻¹ s⁻¹, so omit the unit and give the number.

* VRDN-02012 (antibody, V domains shown) VH: QVQLQESGPGLVKPSETLSLTCTVSGYSITGGYLWNWIRQPPGKGLEWIGHISYDGTNNYKPSLKDRVTISRDTSKNQFSLKLSSVTAADTAVYYCARYGRVFFDYWGQGTLVTVSS VL: DIVMTQSPLSLPVTPGEPASISCRSSQSIVHSNGNTYLQWYLQKPGQSPQLLIYKVSNRLYGVPDRFSGSGSGTDFTLKISRVEAEDVGVYYCFQGSHVPWTFGQGTKVEIK | 102000

Switching to the query record.
Documented kon of VRDN-02024 (antibody, V domains shown) VH: QVQLQESGPGLVKPSETLSLTCTVSGYSITGGYLWNWIRQPPGKGLEWIGYISYDGTNNYKPSLKDRVTISRDTSKNQFSLKLSSVTAADTAVYYCARYGRHFFDYWGQGTLVTVSS VL: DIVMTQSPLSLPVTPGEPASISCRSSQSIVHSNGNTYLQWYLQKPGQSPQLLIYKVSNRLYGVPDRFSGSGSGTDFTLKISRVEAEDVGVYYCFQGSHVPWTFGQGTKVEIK : 101000
